target: Corticotropin-releasing factor receptor 2/Corticotropin-releasing factor-binding protein (Homo sapiens, UniProt P24387+Q13324); assay: activators of CRF receptor 2 with binding protein – uHTS hits, confirmation (AID 602473); format: functional; conditions: read-out: EC50_Mean
Sequence (Q13324 whole entry): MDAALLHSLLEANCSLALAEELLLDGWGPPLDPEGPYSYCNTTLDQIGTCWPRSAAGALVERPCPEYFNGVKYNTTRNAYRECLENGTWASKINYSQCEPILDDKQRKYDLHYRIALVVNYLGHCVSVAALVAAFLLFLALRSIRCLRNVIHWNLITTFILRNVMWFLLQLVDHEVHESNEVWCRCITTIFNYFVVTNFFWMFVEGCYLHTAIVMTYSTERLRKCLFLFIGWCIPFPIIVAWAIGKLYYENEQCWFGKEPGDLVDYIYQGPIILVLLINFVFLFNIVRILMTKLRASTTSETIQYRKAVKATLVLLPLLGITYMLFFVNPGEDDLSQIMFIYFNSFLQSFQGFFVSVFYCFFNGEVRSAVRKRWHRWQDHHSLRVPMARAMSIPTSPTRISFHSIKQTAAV
Sequence (P24387 whole entry): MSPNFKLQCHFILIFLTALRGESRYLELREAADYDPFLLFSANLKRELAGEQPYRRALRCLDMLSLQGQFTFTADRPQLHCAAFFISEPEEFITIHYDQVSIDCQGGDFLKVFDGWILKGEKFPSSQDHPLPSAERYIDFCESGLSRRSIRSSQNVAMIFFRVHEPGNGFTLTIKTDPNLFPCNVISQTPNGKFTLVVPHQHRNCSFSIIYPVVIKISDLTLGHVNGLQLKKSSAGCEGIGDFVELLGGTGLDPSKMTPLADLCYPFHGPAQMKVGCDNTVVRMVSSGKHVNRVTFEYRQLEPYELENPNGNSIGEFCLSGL
Active and inactive are the calls of the source.
Please respond with reported EC50 for every item in the list.

**Q:** Quick one: EC50 of N#Cc1cc(C(=O)c2ccccc2O)cn(-c2ccc(Cl)cc2)c1=O ?
**A:** > 53 µM (inactive)

**Q:** Okay, and CC(C)N1CCc2c(sc(NC(=O)CCc3ccccc3)c2C(N)=O)C1 ?
**A:** > 53 µM (inactive)

**Q:** Okay, and CCN(CC)S(=O)(=O)c1cc(OC)c(C)cc1C ?
**A:** > 53 µM (inactive)

**Q:** Okay, and Cn1c(=O)c2cc3c(nc2n(C)c1=O)CC(c1ccccc1)CC3=O (stereo unspecified) ?
**A:** > 53 µM (inactive)

**Q:** Okay, and N#C/C(=N\Nc1ccccc1Cl)C(=O)c1ccccc1 ?
**A:** > 53 µM (inactive)

Next:
**Q:** Quick one: EC50 of Cc1cc(C)c(OCCN(C)Cc2ccccc2)c(Br)c1 ?
**A:** > 53 µM (inactive)

---

Biological target: Replicative DNA helicase DnaB (Mycobacterium tuberculosis, UniProt P9WMR3)
Sequence (P9WMR3 whole entry): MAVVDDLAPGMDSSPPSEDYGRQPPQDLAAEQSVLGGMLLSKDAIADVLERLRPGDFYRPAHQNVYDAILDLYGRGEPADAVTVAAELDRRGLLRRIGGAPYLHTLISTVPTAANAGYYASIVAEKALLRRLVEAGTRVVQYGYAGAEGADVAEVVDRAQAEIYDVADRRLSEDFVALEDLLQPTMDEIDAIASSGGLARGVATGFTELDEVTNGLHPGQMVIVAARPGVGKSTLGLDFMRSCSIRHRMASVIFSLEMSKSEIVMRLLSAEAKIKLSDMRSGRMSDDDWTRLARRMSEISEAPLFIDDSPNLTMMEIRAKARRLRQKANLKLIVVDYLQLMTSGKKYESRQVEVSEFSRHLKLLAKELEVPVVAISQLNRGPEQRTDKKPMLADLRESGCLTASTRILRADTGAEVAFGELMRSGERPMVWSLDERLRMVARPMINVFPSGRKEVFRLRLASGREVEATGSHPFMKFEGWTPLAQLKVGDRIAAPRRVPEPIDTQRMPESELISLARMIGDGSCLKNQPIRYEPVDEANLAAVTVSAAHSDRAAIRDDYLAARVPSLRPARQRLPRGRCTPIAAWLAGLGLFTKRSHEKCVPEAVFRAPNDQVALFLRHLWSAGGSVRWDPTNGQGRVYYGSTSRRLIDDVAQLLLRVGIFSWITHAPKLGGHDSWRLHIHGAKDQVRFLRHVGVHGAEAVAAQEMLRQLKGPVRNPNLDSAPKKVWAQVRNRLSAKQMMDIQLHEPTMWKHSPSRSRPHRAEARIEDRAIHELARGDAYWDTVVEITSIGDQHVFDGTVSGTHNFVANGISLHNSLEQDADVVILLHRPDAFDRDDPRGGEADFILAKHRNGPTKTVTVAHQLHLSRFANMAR
Assay: DnaB intein splicing inhibitors, dose response, biochemical, cell-free fluorescence (AID 449749)
Format: functional
Calls of active or inactive are those of the source.
Please answer using one outcome listed in label 1 for active, label 0 for inactive

**Q:** Kindly provide the recorded test outcome for the following molecule: CCCc1nn(C)c2c1C(c1ccncc1)C(C#N)=C(N)O2 (stereo not drawn)
**A:** label 1

**Q:** Okay, and COC(=O)c1sc(-c2cccs2)cc1NC(=O)/C=C/C(=O)O ?
**A:** label 1

**Q:** Okay, and Cc1nnc(Sc2cc(NCCCO)c([N+](=O)[O-])c3nonc23)s1 ?
**A:** label 1

**Q:** Okay, and ClC(Cl)(Cl)c1nc2ccccc2n2nncc12 ?
**A:** label 1

**Q:** Okay, and Cc1nn(-c2ccccc2)c2c1C1(C(=O)N(C(C)C)c3ccccc31)C(C#N)=C(N)O2 (stereo not drawn) ?
**A:** label 1

---
**Q:** Kindly provide the recorded test outcome for the following molecule: Cc1oc2cc([N+](=O)[O-])c(O)c([N+](=O)[O-])c2c1C(=O)c1ccc(Cl)cc1
**A:** label 1

**Q:** Okay, and Cc1ccc(NC(=O)CSc2ncc(-c3ccccc3)n2C(=O)c2ccccc2)cc1 ?
**A:** label 1

**Q:** Okay, and Cc1cccc(NC(=O)c2nc(S(=O)(=O)Cc3ccccc3)ncc2Cl)c1 ?
**A:** label 1

**Q:** Okay, and CCOC(=O)c1c(NC(=O)CSc2nnc(-c3c[nH]c4ccccc34)n2CCOC)sc2c1CCCC2 ?
**A:** label 1

**Q:** Okay, and Cc1nn(Cc2ccccc2)c2c1C(c1cccc(Cl)c1)C(C#N)=C(N)O2 (stereo not drawn) ?
**A:** label 1

**Q:** Okay, and Cc1ccc(S(=O)(=O)N[C@@H](CCCCN)C(=O)CCl)cc1 ?
**A:** label 0

---

biological target: Cytochrome P450 2C19 (Homo sapiens); test: Cytochrome panel assay with activity outcomes. Panel member name: p450-cyp2c19 Compounds with AC50 equal or less than 10 uM are considered active; type: functional
Sequence (P33261 whole entry): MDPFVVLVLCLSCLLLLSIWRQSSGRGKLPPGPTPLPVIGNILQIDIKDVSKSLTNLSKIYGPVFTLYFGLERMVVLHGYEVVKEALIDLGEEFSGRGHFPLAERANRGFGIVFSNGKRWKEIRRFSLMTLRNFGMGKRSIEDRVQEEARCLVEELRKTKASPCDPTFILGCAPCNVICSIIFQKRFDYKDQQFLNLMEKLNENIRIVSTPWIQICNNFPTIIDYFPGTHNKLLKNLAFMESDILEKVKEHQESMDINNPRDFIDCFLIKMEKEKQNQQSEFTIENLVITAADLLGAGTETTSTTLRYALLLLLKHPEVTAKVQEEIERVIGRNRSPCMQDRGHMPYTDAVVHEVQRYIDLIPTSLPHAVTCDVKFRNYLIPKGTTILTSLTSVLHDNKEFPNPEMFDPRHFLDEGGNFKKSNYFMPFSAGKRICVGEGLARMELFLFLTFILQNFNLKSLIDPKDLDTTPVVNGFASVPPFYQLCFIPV
Quantity name: AC50

**Q:** Lab note: need AC50 with Cytochrome P450 2C19 (Homo sapiens) for entry Cc1noc(C)c1C(=O)N1CCC[C@@]2(CCN(c3ccccc3)C2)C1 , please look it up.
**A:** 25.1 µM (inconclusive)

**Q:** Okay, and CC(=O)c1nnn(-c2nc(N)nc(N(c3ccccc3)c3ccccc3)n2)c1C ?
**A:** 25.1 µM (inconclusive)

**Q:** Okay, and COc1ccc2c(C)cc(N3CCOCC3)nc2c1 ?
**A:** 31.6 µM (inconclusive)

Each of the following entries comes with a recorded value; kindly state AC50 for each.
1. CC1Cc2ccccc2N1C(=O)Cn1c(=O)cc(O)c2ccccc21 (stereo not drawn)
2. CCCCC1(C)NC(=O)c2c(C)sc(C(=O)OCC)c2N1 (stereo not drawn)
3. c1ccc2c(NC3CC3)nc(-c3ccoc3)nc2c1
4. Cn1nc(C(F)(F)F)c(/C=N/OC(=O)c2ccc(Cl)cc2)c1Cl
5. CNc1ncncc1-c1ccccc1C(F)(F)F
6. COC(=O)c1ccccc1NC(=O)c1ccc(F)cc1
7. COc1ccc(/C=C/C(=O)Nc2cc(C(F)(F)F)ccc2Cl)cc1
8. COc1ccc(/C=C(/NC(C)=O)C(=O)O)cc1

**A:**
1: 22.4 µM (inconclusive); 2: 2.24 µM (inconclusive); 3: 25.1 µM (inconclusive); 4: 10 µM (inconclusive); 5: 39.8 µM (inconclusive); 6: 25.1 µM (inconclusive); 7: 0.00631 µM (inconclusive); 8: 11.2 µM (inconclusive)

---

biological target: DNA dC->dU-editing enzyme APOBEC-3G (Homo sapiens); assay: Dose Response confirmation of small molecule APOBEC3G DNA Deaminase Inhibitors via a fluorescence-based single-stranded DNA deaminase assay. [Related pubchem assays (depositor defined):AID493012, AID493028]; format: functional
Sequence (Q9HC16 whole entry): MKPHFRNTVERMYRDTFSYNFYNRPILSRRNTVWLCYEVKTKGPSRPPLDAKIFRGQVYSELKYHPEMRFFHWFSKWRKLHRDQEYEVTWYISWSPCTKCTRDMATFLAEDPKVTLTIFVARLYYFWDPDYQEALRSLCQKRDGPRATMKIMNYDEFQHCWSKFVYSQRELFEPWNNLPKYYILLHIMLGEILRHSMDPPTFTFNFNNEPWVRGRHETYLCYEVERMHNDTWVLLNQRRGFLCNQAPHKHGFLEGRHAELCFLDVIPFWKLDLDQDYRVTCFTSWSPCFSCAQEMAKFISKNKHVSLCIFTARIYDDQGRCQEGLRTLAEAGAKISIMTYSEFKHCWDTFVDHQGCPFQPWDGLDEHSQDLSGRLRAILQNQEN
Active and inactive are the calls of the source.
Quantity name: IC50

**Q:** Quick one: IC50 of O=[N+]([O-])c1cc2c(cc1/C=N/n1c(S)nnc1-c1ccccc1)OCO2 ?
**A:** 1.89 µM (active)

**Q:** Okay, and CCN(CC)CCNC(=O)CCCCn1c(=S)[nH]c2c([nH]c3ccc(OC)cc32)c1=O ?
**A:** 2.5 µM (active)

**Q:** Okay, and O=[N+]([O-])c1ccc2c(c1)nc(S)n2-c1ccccc1 ?
**A:** 9.42 µM (active)

**Q:** Okay, and CCCc1cc(-c2n[nH]c(=S)n2CC)cs1 ?
**A:** 6.08 µM (active)

Next:
**Q:** Quick one: IC50 of N#Cc1cccc(/N=c2\ssnc2Cl)c1 ?
**A:** 7.4 µM (active)

---

Please respond with reported IC50 for every item in the list.
target: Genome polyprotein (dengue virus type 2, UniProt P29990); assay: flavivirus cap methylation enzyme inhibition – biochemical, confirmation dose response, primary screen (AID 588689); assay type: functional
Sequence (P29990 2492-3391 limits assumed): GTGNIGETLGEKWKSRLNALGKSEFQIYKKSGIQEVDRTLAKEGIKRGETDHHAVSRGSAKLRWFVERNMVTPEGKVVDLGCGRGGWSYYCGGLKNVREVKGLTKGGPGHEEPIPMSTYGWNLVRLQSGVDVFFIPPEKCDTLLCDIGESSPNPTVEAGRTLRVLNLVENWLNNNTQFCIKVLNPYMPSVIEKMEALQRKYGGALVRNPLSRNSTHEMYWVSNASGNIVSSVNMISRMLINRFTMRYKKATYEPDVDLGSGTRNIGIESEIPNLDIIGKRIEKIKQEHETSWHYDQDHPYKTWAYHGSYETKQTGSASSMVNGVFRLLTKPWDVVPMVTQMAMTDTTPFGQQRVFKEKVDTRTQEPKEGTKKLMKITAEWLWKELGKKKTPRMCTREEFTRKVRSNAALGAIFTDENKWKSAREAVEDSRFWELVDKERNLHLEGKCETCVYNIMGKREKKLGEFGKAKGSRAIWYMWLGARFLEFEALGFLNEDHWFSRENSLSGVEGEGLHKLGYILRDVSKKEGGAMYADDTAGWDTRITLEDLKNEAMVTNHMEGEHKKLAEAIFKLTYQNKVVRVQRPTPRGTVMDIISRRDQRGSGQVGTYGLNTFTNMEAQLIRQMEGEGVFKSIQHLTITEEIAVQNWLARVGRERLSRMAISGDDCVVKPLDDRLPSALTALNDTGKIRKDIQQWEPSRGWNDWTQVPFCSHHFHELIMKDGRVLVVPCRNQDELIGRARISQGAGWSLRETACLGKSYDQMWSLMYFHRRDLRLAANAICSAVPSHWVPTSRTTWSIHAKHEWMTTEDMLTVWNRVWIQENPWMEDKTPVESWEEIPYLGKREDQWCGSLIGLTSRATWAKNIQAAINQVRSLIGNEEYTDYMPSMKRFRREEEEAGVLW
The source made the active and inactive calls.

Would you please look over these solved cases?
**Q:** Quick one: IC50 of Cc1nn(Cc2ccccc2)c2c1C(c1cccc(Cl)c1)C(C#N)=C(N)O2 (stereo not given) ?
**A:** > 100 µM (active)

**Q:** Okay, and O=C(O)c1cccc(CN2C(=O)S/C(=C/c3cccc([N+](=O)[O-])c3)C2=O)c1 ?
**A:** 83.2 µM (active)

**Q:** Okay, and O=C1OC(c2ccccc2)(c2cc(Br)c(O)c(Br)c2)c2ccccc21 (stereo not given) ?
**A:** 35.2 µM (active)

**Q:** Okay, and COc1cccc(/C=C2\SC(=S)N(NS(=O)(=O)c3ccccc3)C2=O)c1OC ?
**A:** 41.1 µM (active)

Next:
**Q:** Quick one: IC50 of Nc1ncc(N=Nc2cc(C(=O)O)ccc2Cl)s1 ?
**A:** 73.6 µM (active)
